- System: dopamine D-2 receptors (Rattus norvegicus, UniProt P61169)
- Construct: striatal tissue is dissected and weighed
- Sequence (P61169 whole entry): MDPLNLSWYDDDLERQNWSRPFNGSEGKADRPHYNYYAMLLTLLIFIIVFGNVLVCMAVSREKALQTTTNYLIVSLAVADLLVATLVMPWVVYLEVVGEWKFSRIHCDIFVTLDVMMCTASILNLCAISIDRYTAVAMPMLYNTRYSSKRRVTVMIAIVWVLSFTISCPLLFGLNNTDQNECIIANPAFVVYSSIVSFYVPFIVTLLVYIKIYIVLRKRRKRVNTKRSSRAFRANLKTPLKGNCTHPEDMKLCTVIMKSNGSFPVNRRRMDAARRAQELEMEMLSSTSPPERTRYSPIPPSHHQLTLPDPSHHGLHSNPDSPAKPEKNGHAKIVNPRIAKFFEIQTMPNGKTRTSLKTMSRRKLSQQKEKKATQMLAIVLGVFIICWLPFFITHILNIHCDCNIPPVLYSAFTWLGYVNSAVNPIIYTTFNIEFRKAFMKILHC
- Assay remarks: Inhibition of 3H-spiperone binding to dopamine D-2 receptors in rat corpus striatum in vitro
- Details: 3H-spiperone 0.5 nM, rat corpus striatum, 37° C., 10 min; read-out: Receptor Binding; IC50 DA D-2 3H-Spi
- Method: INHIBITION OF ^3 H-SPIPERONE BINDING TO DOPAMINE D-2 RECEPTORS IN RAT CORPUS STRIATUM IN VITRO By this method the inhibition by drugs of the binding of ^3 H-spiperone (0.5 nM) to dopamine D-2 receptors in membranes from rat corpus striatum is determined in vitro. Male Wistar (Mol:Wistar) rats (125-250 g) are sacrificed and striatal tissue is dissected and weighed. The tissue is homogenized (Ultra Turrax, 10 sec.) in 10 ml of ice-cold 50 mM K-phosphate buffer pH 7.4 (at 25° C.). […]
Examples of compounds with documented pIC50 follow.
Lab note — pIC50 values are minus log10 of concentrations in M.

Input Fc1ccc([C@@H]2C[C@@H](N3CCN(CCN4CCCC4=S)CC3)c3ccc(Cl)cc32)cc1 (relative stereo) [Compound 38] , output reported pIC50. 6.54

Give the measured pIC50 for CC1(C)CNC(=O)N(CCN2CCN([C@@H]3C[C@@H](c4ccc(F)cc4)c4cc(Cl)ccc43)CC2)C1 (single isomer, unassigned) [Compound 35] 6.82

Determine from records and report pIC50 for CC(C)N1CCN(CCN2CCN([C@@H]3C[C@@H](c4ccc(F)cc4)c4cc(Cl)ccc43)CC2)C1=S (relative stereo) [Compound 36] 6.59

Answer with the recorded pIC50 for the compound listed here: Fc1ccc([C@H]2C[C@H](N3CCNCC3)c3ccc(Cl)cc32)cc1 (single isomer, unassigned) [(+)-10] 4.55

Assign pIC50 to the following record: Cc1cc([C@@H]2C[C@@H](N3CCN(CCN4CCNC4=O)CC3)c3ccc(Cl)cc32)cs1 (relative stereo) [Compound 7] 5.55

---
Let me know recorded pIC50 for Fc1ccc([C@@H]2C[C@@H](N3CCNCC3)c3ccc(Cl)cc32)cc1 (relative stereo) [Compound 10] , thanks. 5.60

Provide only the value of recorded pIC50 for CSc1ccc2c(c1)[C@H](c1ccc(F)cc1)C[C@H]2N1CCN(CCN2CCN(C(C)C)C2=O)CC1 (relative stereo) [Compound 23] 6.14

* * *

Parameter pIC50: see the listing below.
- System: 5-HT2 receptors (Rattus norvegicus, UniProt P14842)
- Sequence (P14842 whole entry): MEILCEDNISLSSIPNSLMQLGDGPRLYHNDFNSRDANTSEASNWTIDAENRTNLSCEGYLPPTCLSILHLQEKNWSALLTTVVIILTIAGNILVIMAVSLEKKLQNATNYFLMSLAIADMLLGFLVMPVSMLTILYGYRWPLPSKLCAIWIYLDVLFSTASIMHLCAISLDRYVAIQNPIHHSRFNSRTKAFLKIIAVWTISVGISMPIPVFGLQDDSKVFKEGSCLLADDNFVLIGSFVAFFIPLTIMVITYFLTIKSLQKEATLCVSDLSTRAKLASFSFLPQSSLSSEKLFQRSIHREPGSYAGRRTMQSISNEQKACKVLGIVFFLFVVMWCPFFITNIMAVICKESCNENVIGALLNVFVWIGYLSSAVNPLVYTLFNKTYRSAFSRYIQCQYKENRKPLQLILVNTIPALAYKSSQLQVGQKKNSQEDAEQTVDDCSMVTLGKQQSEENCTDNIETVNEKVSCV
Entry type: numeric. Quantity: pIC50, the -log10 of concentration in molar units.

// below: answered compounds
Look up and report pIC50, with 5-HT2 receptors (Rattus norvegicus, UniProt P14842) as system, for CC(C)N1CCN(CCN2CCN([C@@H]3C[C@@H](c4ccc(F)cc4)c4cc(Cl)ccc43)CC2)C1=O (single isomer, unassigned) [(-)-11] 8.96

Give reported pIC50 for CCN1CCN(CCN2CCN([C@@H]3C[C@@H](c4ccc(F)cc4)c4cc(Cl)ccc43)CC2)C1=O (relative stereo) [Compound 19] (5-HT2 receptors (Rattus norvegicus, UniProt P14842)) 8.59

Fill in: pIC50 on 5-HT2 receptors (Rattus norvegicus, UniProt P14842), entry CSc1ccc2c(c1)[C@H](c1ccc(F)cc1)C[C@H]2N1CCN(CCN2CCNC2=O)CC1 (relative stereo) [Compound 22] 8.46

System 5-HT2 receptors (Rattus norvegicus, UniProt P14842). Read-out pIC50. Item OCCN1CCN([C@@H]2C[C@@H](c3ccc(F)cc3)c3cc(Cl)ccc32)CC1 (relative stereo) [Compound 3] . Report value. 7.60

Supply pIC50 measured with 5-HT2 receptors (Rattus norvegicus, UniProt P14842) for CC(C)N1CCN(CCN2CCN([C@@H]3C[C@@H](c4ccc(F)cc4)c4cc(C(F)(F)F)ccc43)CC2)C1=O (relative stereo) [Compound 13] . 8.43

Let us move to another entry and its pIC50.
Param request: pIC50 | system 5-HT2 receptors (Rattus norvegicus, UniProt P14842) | item Cc1ccc2c(c1)[C@H](N1CCN(CCN3CCNC3=O)CC1)C[C@H]2c1ccc(F)cc1 (relative stereo) [Compound 40, reference compound] 9.15

* * *

- System: dopamine D-2 receptors (Rattus norvegicus, UniProt P61169)
- Construct: striatal tissue is dissected and weighed
- Assay remarks: Inhibition of 3H-spiperone binding to dopamine D-2 receptors in rat corpus striatum in vitro
- Details: 3H-spiperone 0.5 nM, rat corpus striatum, 37° C., 10 min; read-out: Receptor Binding; IC50 DA D-2 3H-Spi
- Experimental: INHIBITION OF ^3 H-SPIPERONE BINDING TO DOPAMINE D-2 RECEPTORS IN RAT CORPUS STRIATUM IN VITRO By this method the inhibition by drugs of the binding of ^3 H-spiperone (0.5 nM) to dopamine D-2 receptors in membranes from rat corpus striatum is determined in vitro. Male Wistar (Mol:Wistar) rats (125-250 g) are sacrificed and striatal tissue is dissected and weighed. The tissue is homogenized (Ultra Turrax, 10 sec.) in 10 ml of ice-cold 50 mM K-phosphate buffer pH 7.4 (at 25° C.). […]
Readout name: pIC50
Here pIC50 is given on a logarithmic scale as minus log10 of the concentration in mol/L.

Here is how some compounds turned out for pIC50.
Fill in pIC50 for record CC(C)N1CCN(CCN2CCN([C@@H]3C[C@@H](c4ccccc4)c4cc(Cl)ccc43)CC2)C1=O (relative stereo) 6.12

Provide one value: measured pIC50 of CC(C)N1CCN(CCN2CCN([C@@H]3C[C@@H](c4cccc(F)c4)c4cc(Cl)ccc43)CC2)C1=O (relative stereo) 6.31

Give pIC50 for CSc1ccc2c(c1)[C@H](c1ccc(F)cc1)C[C@H]2N1CCN(CCN2CCNC2=O)CC1 (relative stereo) 5.96

Please list pIC50 recorded for the compound CC(C)N1CCN(CCN2CCN([C@@H]3C[C@@H](c4ccc(Cl)cc4)c4cc(Cl)ccc43)CC2)C1=O (relative stereo) 6.55

Give recorded pIC50. O=C1NCCN1CCN1CCN([C@H]2C[C@H](c3ccc(F)cc3)c3cc(C(F)(F)F)ccc32)CC1 (single isomer, unassigned) [(+)-1] 6.54

Next:
Supply measured pIC50 of Cc1ccc([C@@H]2C[C@@H](N3CCN(CCN4CCN(C(C)C)C4=O)CC3)c3ccc(Cl)cc32)cc1 (relative stereo) in your reply. 6.35

State its pIC50 for this compound: Cc1ccc2c(c1)[C@H](c1ccc(F)cc1)C[C@H]2N1CCN(CCN2CCNC2=O)CC1 (relative stereo) 6.43

Given the compound CC(C)N1CCN(CCN2CCN([C@@H]3C[C@@H](c4ccc(F)cc4)c4cc(Cl)ccc43)CC2)C1=O (relative stereo) , write its reported pIC50. 6.55

Give me measured pIC50, please, for this compound: Cc1nc2sccn2c(=O)c1CCN1CCC(=C(c2ccc(F)cc2)c2ccc(F)cc2)CC1 [Ritanserin, reference compound] 7.92

Look up pIC50 of CN1CCN(CCN2CCN([C@@H]3C[C@@H](c4ccc(F)cc4)c4cc(Cl)ccc43)CC2)C1=O (relative stereo) and report it. 6.72

Tell me its pIC50 given CC(C)N1CCN(CCN2CCN([C@@H]3C[C@@H](c4ccccc4F)c4cc(Cl)ccc43)CC2)C1=O (relative stereo) as the entry. 6.04

Identify measured pIC50 associated with CCN1CCN(CCN2CCN([C@@H]3C[C@@H](c4ccc(F)cc4)c4cc(Cl)ccc43)CC2)C1=O (relative stereo) 6.59

Identify measured pIC50 corresponding to Cc1cc([C@@H]2C[C@@H](N3CCN(CCO)CC3)c3ccc(Cl)cc32)cs1 (relative stereo) 5.59

* * *

- System: dopamine D-2 receptors (Rattus norvegicus, UniProt P61169)
- Construct: striatal tissue is dissected and weighed
- Assay remarks: Inhibition of 3H-spiperone binding to dopamine D-2 receptors in rat corpus striatum in vitro
- Details: 3H-spiperone 0.5 nM, rat corpus striatum, 37° C., 10 min; read-out: Receptor Binding; IC50 DA D-2 3H-Spi
Readout name: pIC50
Formally, pIC50 is defined as -log10 of the concentration c, with c in mol/L.

Worked cases, pIC50 given:
Give the value of pIC50 reported for the following: Fc1ccc([C@H]2C[C@H](N3CCNCC3)c3ccc(Cl)cc32)cc1 (single isomer, unassigned) [(-)-10] 6.14

Give pIC50 for O=C1N(CCN2CCN([C@@H]3C[C@@H](c4ccc(F)cc4)c4cc(Cl)ccc43)CC2)CCN1c1ccccc1 (relative stereo) 6.52

Item OCCN1CCN([C@@H]2C[C@@H](c3ccc(F)cc3)c3ccc(C(F)(F)F)cc32)CC1 (racemic) [Tefludazine, reference compound] : provide pIC50 8.00

Please supply the value of reported pIC50 for the item O=C1NCCCN1CCN1CCN([C@@H]2C[C@@H](c3ccc(F)cc3)c3cc(F)ccc32)CC1 (single isomer, unassigned) [(-)-33] 5.34

Indicate its recorded pIC50; the compound in question is O=C1NCCN1CCN1CCN([C@@H]2C[C@@H](c3ccc(F)cc3)c3ccc(Cl)cc32)CC1 (relative stereo) [Compound 41, reference compound] 7.77

Next:
Report pIC50 for OCCN1CCN([C@@H]2C[C@@H](c3ccc(F)cc3)c3cc(Cl)ccc32)CC1 (relative stereo) 5.66
